binders and their reported IC50, pseudovirus neutralization
- experimental.target: HIV-1 MGRM-AG-005 envelope glycoprotein (Env) on pseudovirus (HIV-1)
- assay.info: cell-based or functional assay
Response body: numeric value in µg/mL, unit text excluded.

Worked set:
binder	unit.descriptor	readout.number
PGT-130 monoclonal antibody (antibody, V domains shown) VH: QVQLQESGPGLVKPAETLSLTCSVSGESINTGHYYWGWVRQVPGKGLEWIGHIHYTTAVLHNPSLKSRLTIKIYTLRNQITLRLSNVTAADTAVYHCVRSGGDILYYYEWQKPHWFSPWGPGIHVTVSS VL: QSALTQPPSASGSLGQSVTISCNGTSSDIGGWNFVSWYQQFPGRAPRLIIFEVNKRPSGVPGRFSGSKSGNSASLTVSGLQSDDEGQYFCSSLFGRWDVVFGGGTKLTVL	µg/mL	0.947
PGT-126 monoclonal antibody (antibody, V domains shown) VH: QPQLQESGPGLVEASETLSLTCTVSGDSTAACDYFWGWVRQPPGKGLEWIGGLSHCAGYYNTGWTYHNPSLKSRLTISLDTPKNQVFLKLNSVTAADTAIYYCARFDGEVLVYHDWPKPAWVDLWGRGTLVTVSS VL: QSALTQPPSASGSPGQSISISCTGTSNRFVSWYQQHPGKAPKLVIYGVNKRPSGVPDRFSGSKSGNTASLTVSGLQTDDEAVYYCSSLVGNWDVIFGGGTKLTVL	µg/mL	1.35

Field: next binder
stdin: Requested field: IC50, pseudovirus neutralization. Item: PGT-123 monoclonal antibody (antibody, V domains shown) VH: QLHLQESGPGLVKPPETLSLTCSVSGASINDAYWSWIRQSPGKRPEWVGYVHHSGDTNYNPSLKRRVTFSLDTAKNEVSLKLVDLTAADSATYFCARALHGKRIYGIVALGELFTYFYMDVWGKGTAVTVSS VL: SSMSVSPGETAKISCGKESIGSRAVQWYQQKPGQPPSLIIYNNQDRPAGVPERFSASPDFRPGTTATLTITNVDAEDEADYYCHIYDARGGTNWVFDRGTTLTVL
stdout: 0.104
